Experimental System: UPR counterscreen luciferase reporter, luminescence
Assay Summary: luciferase reporter activation, UPR counterscreen line – cell-based, luminescence, counter-screen for adaptive UPR activator project, dose response (AID 489027)
Activity calls are given as the source filed them. How the calls were made is not given here.

{"columns": ["Compound", "EC50"],
 "data": [
  ["CCOc1cc(/C=N/N=C(\\N)c2nonc2N)cc(Br)c1OCc1cccc2ccccc12", "> 80 µM (inactive)"],
  ["C#CCOCCOCCOCCNc1nc(N2CCN(C(=O)CCCCCCCCCCNC(=O)[C@H](CCCCN)n3cc(C[C@@H](C)CC)nn3)CC2)nc(N2CCN(C(=O)CCCCCCCCCCNC(=O)[C@H](CCCN=C(N)N)n3cc(C[C@@H](C)CC)nn3)CC2)n1", "> 80 µM (inactive)"],
  ["C/C(CCC12CC3CC(CC(C3)C1)C2)=N\\NC(N)=S", "inactive"],
  ["CN1Cc2c(N3CCOCC3)nc3sc(C(=O)c4ccc(Br)cc4)c(N)c3c2CC1(C)C", "18.7 µM"],
  ["O=C(NCCc1ccc(O)c(O)c1)C1COc2ccccc2O1 (stereo not drawn)", "16.8 µM"],
  ["CCOc1ccc(C(=O)Nc2cc(-c3nc4ccccc4[nH]3)ccc2Cl)cc1[N+](=O)[O-]", "17.7 µM"],
  ["Cn1c2ccccc2c2cc(/C=N/NC(=O)c3cc(O)ccc3O)ccc21", "4.02 µM"],
  ["CCc1cc2c(C)ccc(C)c2nc1SCC(=O)Nc1c[nH]c(=O)[nH]c1=O", "16.8 µM"],
  ["CCC(=O)Nc1nnc(SCC(=O)c2ccc3c(c2)Cc2ccccc2-3)s1", "inactive"],
  ["COc1cccc(C(=O)Oc2cc3c4c(c2)C(C)=CC(C)(C)N4C(=O)C3=O)c1", "15.7 µM"],
  ["CCC1(c2ccc(F)cc2)NC(=O)N(CC(=O)Nc2ccc(-c3nc4ccc(C)cc4s3)cc2)C1=O (stereo not drawn)", "> 80 µM (inactive)"],
  ["Cc1ccc(S(=O)(=O)Cc2cc(F)c([N+](=O)[O-])cc2[N+](=O)[O-])cc1", "> 80 µM (inactive)"],
  ["CCC(Sc1nnc2c3ccccc3n(CC)c2n1)C(=O)Nc1sc2c(c1C#N)CCCC2 (stereo not drawn)", "inactive"],
  ["Cc1ccc(C(=O)Nc2cc(S(=O)(=O)N3CCOCC3)ccc2N2CCCC2)cc1", "inactive"],
  ["COc1ccc(/C=c2\\s/c(=C(/C#N)C(=O)NCc3ccco3)n(-c3ccccc3)c2=O)cc1", "inactive"],
  ["OC(CNCC1CCCO1)Cn1c2ccc(Br)cc2c2cc(Br)ccc21 (stereo not drawn)", "> 80 µM (inactive)"],
  ["Cc1cccnc1Nc1nc(-c2ccc(O)c(O)c2)cs1", "2.29 µM"],
  ["Cc1ccc(NC(=O)Cn2c(/C=C/c3ccccc3)nc3ccccc32)cc1C", "> 80 µM (inactive)"],
  ["Cc1ccc(N2CCN(c3ccc(NCc4nc5ccccc5n4C)cc3)CC2)cc1", "inactive"],
  ["O=C(Nc1ccc2nc3n(c(=O)c2c1)CCCCC3)c1ccccc1Cl", "> 80 µM (inactive)"],
  ["NS(=O)(=O)c1ccc(N/N=C/c2cn(-c3ccccc3)nc2-c2ccccc2)c([N+](=O)[O-])c1", "7.34 µM"],
  ["CCOC(=O)c1c(NC(=O)c2cc(C)on2)c2cc([N+](=O)[O-])ccc2n1C", "> 80 µM (inactive)"],
  ["Cc1ccc(CNC(=O)c2ccc3c(=O)n4c(-c5ccc(C)cc5)csc4nc3c2)cc1", "> 80 µM (inactive)"],
  ["CN(C)S(=O)(=O)c1ccc(N2CCCC2)c(C(=O)Nc2nccs2)c1", "inactive"],
  ["CN(/N=C\\c1ccc(O)c(O)c1)c1nc(-c2ccccc2)cc(-c2ccccc2)n1", "7.52 µM"],
  ["COc1cc(/C=N/Nc2nc(Nc3ccc(C)cc3)nc(-n3nc(C)cc3C)n2)cc(OC)c1OC", "> 80 µM (inactive)"],
  ["Cc1cnc(NC(=O)c2cc3c(C)nn(Cc4ccccc4Cl)c3s2)s1", "> 80 µM (inactive)"],
  ["CN(C)CCOc1ccc(-c2c(-c3ccccc3)sc3ccccc23)cc1", "17 µM"],
  ["N#Cc1ccc(-c2ccc(Cl)cc2)nc1SCC(=O)c1cccc(Cl)c1", "8.05 µM"],
  ["Cc1cnc(NC(=O)c2cc(S(=O)(=O)N(C)C)ccc2N2CCCC2)s1", "4.67 µM"],
  ["N/C(=N\\c1nc(CSc2ccccn2)cc(=O)[nH]1)Nc1ccc(Cl)cc1Cl", "> 80 µM (inactive)"],
  ["Nc1nc(-c2cc(O)ccc2[N+](=O)[O-])cc(-c2ccccc2)c1[N+](=O)[O-]", "7.88 µM"],
  ["COc1ccc2[nH]c3c(c2c1)CCN1C(=O)C(CC(=O)NC/C=C(\\C)CCC=C(C)C)C[C@H](C(=O)N(C(C)C)C(C)C)[C@@]31C (stereo partly drawn)", "inactive"]
]}
